system: Enterococcus sp.; experiment: In vitro antibacterial evaluation: minimum inhibitory concentration (MIC), broth dilution method; type: cell-based; conditions: Enterococcus faecalis (GC 4553); 18 hours at 35° C.
Items are presented alongside their recorded MIC Enterococcus faecalis (GC 4553).
// units = µg/mL; emit number, no label

Recorded MIC Enterococcus faecalis (GC 4553), per entry:
CC(c1ccccc1)C1NC(=O)CNC(=O)C(CO)NC(=O)C(C(O)C2CNC(=N)N2C2OC(CO)C(O)C(O)C2O)NC(=O)C(C(O)C2CNC(=N)N2)NC(=O)C(Cc2ccc(OC3OC(CO)C(OC4OC(CO)C(O)C(OCc5ccc(OCc6ccccc6)cc5)C4O)C(O)C3O)cc2)NC1=O (stereo not shown) [Example 231c] ... 4
CC(c1ccccc1)C1NC(=O)CNC(=O)C(CO)NC(=O)C(C(O)C2CN(c3nc4ccccc4o3)C(=N)N2C2OC(CO)C(O)C(O)C2O)NC(=O)C(C(O)C2CNC(=Nc3nc4ccccc4o3)N2)NC(=O)C(Cc2ccc(OC3OC(CO)C(OC4OC5COC6(OC5C(O)C4O)C4CC5CC(C4)CC6C5)C(O)C3O)cc2)NC1=O (stereo not shown) ... 8
CC(c1ccccc1)C1NC(=O)CNC(=O)C(CO)NC(=O)C(C(O)C2CNC(=N)N2C2OC(CO)C(O)C(O)C2O)NC(=O)C(C(O)C2CNC(=N)N2)NC(=O)C(Cc2ccc(OC3OC(CO)C(OC4OC(COCc5cccs5)C(O)C(O)C4O)C(O)C3O)cc2)NC1=O (stereo not shown) ... 32

Now let's try a different one.
Task item: Field request: MIC Enterococcus faecalis (GC 4553) | item: CC(c1ccccc1)C1NC(=O)CNC(=O)C(CO)NC(=O)C(C(O)C2CNC(=N)N2C2OC(CO)C(O)C(O)C2O)NC(=O)C(C(O)C2CNC(=N)N2)NC(=O)C(Cc2ccc(OC3OC(CO)C(OC4OC5COC(c6cccc(Oc7cccc(C(F)(F)F)c7)c6)OC5C(O)C4O)C(O)C3O)cc2)NC1=O (stereo not shown)
Reply: 16

###

system: Enterococcus sp.; test: In vitro antibacterial evaluation: minimum inhibitory concentration (MIC), broth dilution method; type: cell-based; conditions: strain GC 3059
Text: […]
measured property: MIC Enterococcus faecalis (GC 3059)

Task item: Recorded MIC Enterococcus faecalis (GC 3059) of CSc1ccc(C2OCC3OC(OC4C(CO)OC(Oc5ccc(CC6NC(=O)C(C(C)c7ccccc7)NC(=O)CNC(=O)C(CO)NC(=O)C(C(O)C7CNC(=N)N7C7OC(CO)C(O)C(O)C7O)NC(=O)C(C(O)C7CNC(=N)N7)NC6=O)cc5)C(O)C4O)C(O)C(O)C3O2)cc1 (stereo not shown) , please.
Reply: 4 µg/mL

###

Measured MIC Streptococcus pneumoniae (GC 4565) of individual entries
system: Streptococcus sp.; assay: In vitro antibacterial evaluation: minimum inhibitory concentration (MIC), broth dilution method; format: cell-based; conditions: Streptococcus pneumoniae (GC 4565); 18 hours at 35° C.

The examples below pair each entry with its known result.
CCOc1cc(COCC2OC(OC3C(CO)OC(Oc4ccc(CC5NC(=O)C(C(C)c6ccccc6)NC(=O)CNC(=O)C(CO)NC(=O)C(C(O)C6CNC(=N)N6C6OC(CO)C(O)C(O)C6O)NC(=O)C(C(O)C6CNC(=N)N6)NC5=O)cc4)C(O)C3O)C(O)C(O)C2O)ccc1OC (stereo not drawn) ... 1 µg/mL
CC(c1ccccc1)C1NC(=O)CNC(=O)C(CO)NC(=O)C(C(O)C2CNC(=N)N2C2OC(CO)C(O)C(O)C2O)NC(=O)C(C(O)C2CNC(=N)N2)NC(=O)C(Cc2ccc(OC3OC(CO)C(OC4OC(CO)C(O)C(OCc5ccc(OCc6ccccc6)cc5)C4O)C(O)C3O)cc2)NC1=O (stereo not drawn) [Example 231c] ... <0.12 µg/mL

We next turn to a different molecule, shown below.
Task item: What measured MIC Streptococcus pneumoniae (GC 4565) is associated with N=C1NCC(C(O)C2NC(=O)C(Cc3ccc(OC4OC(CO)C(OC5OC6COC(Cc7ccccc7)OC6C(O)C5O)C(O)C4O)cc3)NC(=O)C(CC3CCCCC3)NC(=O)CNC(=O)C(CO)NC(=O)C(C(O)C3CNC(=N)N3C3OC(CO)C(O)C(O)C3O)NC2=O)N1 (stereo not drawn) on Streptococcus sp.?
Reply: <0.06 µg/mL

###

test system: Streptococcus sp.; experiment: In vitro antibacterial evaluation: minimum inhibitory concentration (MIC), broth dilution method; format: cell-based; settings: strain ATCC 6301
measured property: MIC Streptococcus pneumoniae (ATCC 6301) (µg/mL)
State just the number; it will be interpreted in µg/mL.

COc1cc(OC)cc(C2OCC3OC(OC4C(CO)OC(Oc5ccc(CC6NC(=O)C(C(C)c7ccccc7)NC(=O)CNC(=O)C(CO)NC(=O)C(C(O)C7CNC(=N)N7C7OC(CO)C(O)C(O)C7O)NC(=O)C(C(O)C7CNC(=N)N7)NC6=O)cc5)C(O)C4O)C(O)C(O)C3O2)c1 (stereo not shown) ... 0.25
COc1cc(OC)cc(C2OC3C(OC4C(CO)OC(Oc5ccc(CC6NC(=O)C(C(C)c7ccccc7)NC(=O)CNC(=O)C(CO)NC(=O)C(C(O)C7CNC(=N)N7C7OC(CO)C(O)C(O)C7O)NC(=O)C(C(O)C7CNC(=N)N7)NC6=O)cc5)C(O)C4O)OC(CO)C(O)C3O2)c1 (stereo not shown) [Example 150a] ... 8

Attention now shifts to the item below.
Task item: Item under review: CC(c1ccccc1)C1NC(=O)CNC(=O)C(CO)NC(=O)C(C(O)C2CN(Cc3ccc4ccccc4c3)C(=N)N2C2OC(CO)C(O)C(O)C2O)NC(=O)C(C(O)C2CNC(=N)N2)NC(=O)C(Cc2ccc(OC3OC(CO)C(OC4OC5COC6(OC5C(O)C4O)C4CC5CC(C4)CC6C5)C(O)C3O)cc2)NC1=O (stereo not shown) . Reported MIC Streptococcus pneumoniae (ATCC 6301)?
Reply: 1

###

tested on: Staphylococcus sp.; experiment: In vitro antibacterial evaluation: minimum inhibitory concentration (MIC), broth dilution method; assay type: cell-based; details: broth dilution, 5×10^5 CFU/mL, 18 hours at 35° C.
Label condition met when MIC Staphylococcus aureus (GC 3053) < 4 µg/mL; otherwise condition not met.

CC(C)=CCCC(C)=CCOc1ccc(C2OCC3OC(OC4C(CO)OC(Oc5ccc(CC6NC(=O)C(C(C)c7ccccc7)NC(=O)CNC(=O)C(CO)NC(=O)C(C(O)C7CNC(=N)N7C7OC(CO)C(O)C(O)C7O)NC(=O)C(C(O)C7CNC(=N)N7)NC6=O)cc5)C(O)C4O)C(O)C(O)C3O2)cc1 (centres unmarked) ... condition met
CC(c1ccccc1)C1NC(=O)CNC(=O)C(CO)NC(=O)C(C(O)C2CNC(=N)N2C2OC(CO)C(O)C(O)C2O)NC(=O)C(C(O)C2CNC(=NC(=O)C(C)(C)C)N2)NC(=O)C(Cc2ccc(OC3OC(CO)C(OC4OC(CO)C(O)C(O)C4O)C(O)C3O)cc2)NC1=O (centres unmarked) ... condition met
COc1ccc(Oc2cccc(C3OCC4OC(OC5C(CO)OC(Oc6ccc(CC7NC(=O)C(C(C)c8ccccc8)NC(=O)CNC(=O)C(CO)NC(=O)C(C(O)C8CNC(=N)N8C8OC(CO)C(O)C(O)C8O)NC(=O)C(C(O)C8CNC(=N)N8)NC7=O)cc6)C(O)C5O)C(O)C(O)C4O3)c2)cc1 (centres unmarked) ... condition met

Task item: Answer whether the compound CC(c1ccccc1)C1NC(=O)CNC(=O)C(CO)NC(=O)C(C(O)C2CNC(=N)N2C2OC(CO)C(O)C(O)C2O)NC(=O)C(C(O)C2CNC(=N)N2)NC(=O)C(Cc2ccc(OC3OC(CO)C(OC4OC5COC(c6cc7c(cc6Cl)OCO7)OC5C(O)C4O)C(O)C3O)cc2)NC1=O (centres unmarked) has MIC Staphylococcus aureus (GC 3053) strictly less than 4 µg/mL
Reply: condition met

Task item: Then CC(c1ccccc1)C1NC(=O)CNC(=O)C(CO)NC(=O)C(C(O)C2CNC(=N)N2C2OC(CO)C(O)C(O)C2O)NC(=O)C(C(O)C2CNC(=N)N2)NC(=O)C(Cc2ccc(OC3OC(CO)C(OC4OC5COC(c6ccc(-c7cccs7)cc6)OC5C(O)C4O)C(O)C3O)cc2)NC1=O (centres unmarked) ?
Reply: condition not met

###

system: Staphylococcus sp.; test: In vitro antibacterial evaluation: minimum inhibitory concentration (MIC), broth dilution method; format: cell-based; settings: strain GC 4547
measured property: MIC Coagulase Negative Staphylococcus (GC 4547) (µg/mL)
Unit µg/mL implied. Number only.

Task item: Record lookup: for Staphylococcus sp., what MIC Coagulase Negative Staphylococcus (GC 4547) belongs to CC(c1ccc(Cl)cc1)C1NC(=O)CNC(=O)C(CO)NC(=O)C(C(O)C2CNC(=N)N2C2OC(CO)C(O)C(O)C2O)NC(=O)C(C(O)C2CNC(=N)N2)NC(=O)C(Cc2ccc(OC3OC(CO)C(OC4OC5COC(c6ccccc6)OC5C(O)C4O)C(O)C3O)cc2)NC1=O (centres unmarked) ?
Reply: 4
